Cited source for all entries: the DeepSol protein solubility set

Experiment: soluble on expression in E. coli; label from the status in PepcDB or PDB records
readout: soluble on expression in E. coli

// below: answered sequences
MVTKEQVVEALEGIVDPFLHKTLKETSAIKEVTVKPEKEHVSVKIAIVKTGTAEQMQLQSGIVKLVKELGAATVGLRFAEFTEEELAQFAPEQEEEQSESLLSPNSKTTFLAVASGKGGVGKSTVSVNLAVALARLGKKVGIIDADIYGFSVPDMMGIEKRPIVRGDKIIPVERLGVKVISMGFFVEDNAPVIWRGPMLGKMLNHFFTEVEWGDLDYLVLDLPPGTGDVALDVHSMLPSCKEIIVTTPHPTAAFVAARAGAMALRTEHSILGVVENMAYFESKVTGEKEYVFGKGGGDKLATELQTNVLGRIPLQQPDWNKEDFAPSVYEDTHTTGIIYSKIAETVIDKTAVTQK	not soluble
MGHHHHHHSHMRVFALQLESFKENLMQSLFNSIPKKSVIVLPEYVINPFFHHNMGLDVNEISDQSARAVEFLSQKCEELDLIVSAPVLLEEHSKIYKKIALISKESVKYYTQQRLIPYPHWDEESFFDNEKSAFKELLVFERDGLKFAPLFGFEAHFDEIWVQAKNQGVDVVLLSSVATFESNERWRLLCQMRAFCASCVVVRANRIGAYRQIIVEEDQKNEFLWKFYGDSFVALPNGAIEDSLEGKMGALNAQIDKNDIDEWAKLWHFRTIKEG	soluble
SLVGYSAVSQPSPASFLLGPTLPPAPSIAFRLWRPYSMTARITSVEALPYRLPLTSKLAWGAHSALSAAEHVLVRVTLSDGSVGVAEATPRPTIYGETPGSVTAILQHLEPALLGLDIADEAALNRVRGSVAGNHTARGALDMALWEARAASRGQSLFDTLLGPHERVRVSFILGIAPPAEMLAEAERVVAAGVRCLKVKVGRHAAQDLQVIAELRRRYGDDVQLYADSNETLTLEQAPDVLAAMREAGLMYVEEPLPARDLRARAALHAAGVLPIVADDSCFTPADLERELDFDTFDVLNVKTARNGFTDGLQMLRRAAEHGKRGMVGSQASTGLGTLHAALLSTQAEVTEPCELSFVLKLGDDLLNRPIEFQDGWLNVPELREHRLDEDKLARYRI	soluble
MGSDKIHHHHHHMPLRGGVTCRVPSGMWMVPPHCGVWVPGGMLHSNVATANARLFFLFIEPGAADLPNRCCTLSLSPLVRELIIELADQSEVATADSELMTTLLLSALSRMPVEHLHLPLTDEPRLARIASELADDPSDRSTMAQWARRVAMSENSLARLVQHQTGLTFGRWRQQLQLIIAIRSLASGATVQQVSGDLGYESVSAFITMFKKALGTSPSRYLRNFDR	not soluble

# ---- query sequence ----
Report soluble on expression in E. coli for MSLSRFQFVADHLHAFEVKWLCAGVEVARSSFYAWLAGAEGRAARKAADEALAARIRMVHDEDNTYGAPRITAELNDSVPDGERVNHKRVARVMRDAGIAGYRRRRRVKTTTPDPAKQKVPDLLKRDFTAPAPNEKYVGDITYLPLATGSNLYMATVIDCFSGRVAGWAIAEHMRTELVEDALKAADALRGSLAGAVFHSDHGSQYTSTDFASLCEKLGVTQSMGGVGSSADNALAESFNASLKREVLQDRSHWPDSATCRRQVFRWLVRYNLRRRHSRCRYSSPVSYERSHAPATLPEAAEGHHHHHH
not soluble
